Biological target: EGFR (form in the assay not stated) (human, UniProt P00533 25-645, limits assumed)
Assay: ELISA, NEM conjugate 500 nM
RECORDED METRIC: binding ratio vs parent P54AR4-83v2 (ratio)
Answer in ratio, number only, no unit symbol.

# example entries with known answers
P54AR4-83v2 L88C, NEM conjugate (designed binder, NEM on Cys 88, His-tagged) LPAPKNLVVSEVTEDSARLSWDDPWAFYESFLIQYQESEKVGEAIVLTVPGSERSYDLTGLKPGTEYTVSIYGVHNVYKDTNMRGLPCSAIFTT: 0.97
P54AR4-83v2 R84C, NEM conjugate (designed binder, NEM on Cys 84, His-tagged) LPAPKNLVVSEVTEDSARLSWDDPWAFYESFLIQYQESEKVGEAIVLTVPGSERSYDLTGLKPGTEYTVSIYGVHNVYKDTNMCGLPLSAIFTT: 0.98
P54AR4-83v2 T48C, NEM conjugate (designed binder, NEM on Cys 48, His-tagged) LPAPKNLVVSEVTEDSARLSWDDPWAFYESFLIQYQESEKVGEAIVLCVPGSERSYDLTGLKPGTEYTVSIYGVHNVYKDTNMRGLPLSAIFTT: 0.93
P54AR4-83v2 L32C, NEM conjugate (designed binder, NEM on Cys 32, His-tagged) LPAPKNLVVSEVTEDSARLSWDDPWAFYESFCIQYQESEKVGEAIVLTVPGSERSYDLTGLKPGTEYTVSIYGVHNVYKDTNMRGLPLSAIFTT: 0.91
P54AR4-83v2 P87C, NEM conjugate (designed binder, NEM on Cys 87, His-tagged) LPAPKNLVVSEVTEDSARLSWDDPWAFYESFLIQYQESEKVGEAIVLTVPGSERSYDLTGLKPGTEYTVSIYGVHNVYKDTNMRGLCLSAIFTT: 0.91

According to the records, this binder P54AR4-83v2 T68C, NEM conjugate (designed binder, NEM on Cys 68, His-tagged) LPAPKNLVVSEVTEDSARLSWDDPWAFYESFLIQYQESEKVGEAIVLTVPGSERSYDLTGLKPGTEYCVSIYGVHNVYKDTNMRGLPLSAIFTT displays binding ratio vs parent P54AR4-83v2 of 0.95

According to the records, this binder P54AR4-83v2 N82C, NEM conjugate (designed binder, NEM on Cys 82, His-tagged) LPAPKNLVVSEVTEDSARLSWDDPWAFYESFLIQYQESEKVGEAIVLTVPGSERSYDLTGLKPGTEYTVSIYGVHNVYKDTCMRGLPLSAIFTT displays binding ratio vs parent P54AR4-83v2 of 0.96

According to the records, this binder P54AR4-83v2 V12C, NEM conjugate (designed binder, NEM on Cys 12, His-tagged) LPAPKNLVVSECTEDSARLSWDDPWAFYESFLIQYQESEKVGEAIVLTVPGSERSYDLTGLKPGTEYTVSIYGVHNVYKDTNMRGLPLSAIFTT displays binding ratio vs parent P54AR4-83v2 of 0.93

According to the records, this binder P54AR4-83v2 G42C, NEM conjugate (designed binder, NEM on Cys 42, His-tagged) LPAPKNLVVSEVTEDSARLSWDDPWAFYESFLIQYQESEKVCEAIVLTVPGSERSYDLTGLKPGTEYTVSIYGVHNVYKDTNMRGLPLSAIFTT displays binding ratio vs parent P54AR4-83v2 of 0.9
